Tested on: Saccharomyces cerevisiae
experiment.summary: Antifungal activity against PDR1/PDR3 deficient Saccharomyces cerevisiae after 24 to 48 hrs by microdilution assay
Assay type: functional
readout.label: MIC (µg/mL)

>  <compound>
COc1ccc([C@H]2COc3c(ccc(O)c3O)C2)c2c1C=CC(C)(C)O2

>  <reading.unit>
µg/mL

>  <MIC>
15.2

$$$$
>  <compound>
COc1ccc2c(c1CC=C(C)C)O[C@@H]1c3ccc(O)cc3OC[C@H]21 [ENT-SANDWICENSIN]

>  <reading.unit>
µg/mL

>  <MIC>
3.8

$$$$
>  <compound>
COc1ccc([C@H]2COc3c(ccc(O)c3O)C2)c(O)c1CC=C(C)C

>  <reading.unit>
µg/mL

>  <MIC>
3.8

$$$$

(A) C=CC(C)(C)c1cc(C2COc3cc(O)c(CC=C(C)C)c(O)c3C2=O)c(O)cc1O (racemic)
(B) C=CC(C)(C)c1cc([C@@H]2COc3c(ccc(O)c3O)C2)c(OC)cc1OC
(C) C=CC(C)(C)c1cc([C@]2(O)COc3cc(O)c(CC=C(C)C)c(O)c3C2=O)c(O)cc1O
(D) COc1ccc(C2COc3cc(O)cc(O)c3C2=O)c2c1C=CC(C)(C)O2 (racemic)
Q: Write the entries in order, lowest recorded MIC first. Order the labels as requested and give them as your answer.
Ans: A, D, B, C
